- TARGET OR TEST SYSTEM: α4β2-subtype (central nicotine receptor) (Rattus norvegicus, UniProt P09483+P12390)
- Construct: Membrane-enriched fractions of rat brain without cerebellum; tissue ABS Inc. Wilmington, Del; host or cells: rat brain without cerebellum, membrane-enriched fractions
- Sequence (P09483 31-630): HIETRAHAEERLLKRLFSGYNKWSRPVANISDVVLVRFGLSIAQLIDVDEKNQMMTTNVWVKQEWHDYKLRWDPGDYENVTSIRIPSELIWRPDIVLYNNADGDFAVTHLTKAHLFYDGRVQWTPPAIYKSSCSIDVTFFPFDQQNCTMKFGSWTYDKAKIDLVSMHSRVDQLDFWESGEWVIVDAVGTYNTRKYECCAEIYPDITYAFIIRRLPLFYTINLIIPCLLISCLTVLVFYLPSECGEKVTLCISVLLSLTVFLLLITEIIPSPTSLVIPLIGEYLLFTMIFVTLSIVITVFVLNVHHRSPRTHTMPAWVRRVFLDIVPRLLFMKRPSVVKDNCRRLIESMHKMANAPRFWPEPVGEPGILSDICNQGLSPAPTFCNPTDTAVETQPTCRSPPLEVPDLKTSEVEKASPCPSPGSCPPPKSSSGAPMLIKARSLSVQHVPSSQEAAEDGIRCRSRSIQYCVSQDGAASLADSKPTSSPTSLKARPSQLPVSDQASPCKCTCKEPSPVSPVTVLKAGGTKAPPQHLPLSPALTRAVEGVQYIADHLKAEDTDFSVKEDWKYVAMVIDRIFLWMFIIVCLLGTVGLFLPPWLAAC
- Sequence (P12390 25-500): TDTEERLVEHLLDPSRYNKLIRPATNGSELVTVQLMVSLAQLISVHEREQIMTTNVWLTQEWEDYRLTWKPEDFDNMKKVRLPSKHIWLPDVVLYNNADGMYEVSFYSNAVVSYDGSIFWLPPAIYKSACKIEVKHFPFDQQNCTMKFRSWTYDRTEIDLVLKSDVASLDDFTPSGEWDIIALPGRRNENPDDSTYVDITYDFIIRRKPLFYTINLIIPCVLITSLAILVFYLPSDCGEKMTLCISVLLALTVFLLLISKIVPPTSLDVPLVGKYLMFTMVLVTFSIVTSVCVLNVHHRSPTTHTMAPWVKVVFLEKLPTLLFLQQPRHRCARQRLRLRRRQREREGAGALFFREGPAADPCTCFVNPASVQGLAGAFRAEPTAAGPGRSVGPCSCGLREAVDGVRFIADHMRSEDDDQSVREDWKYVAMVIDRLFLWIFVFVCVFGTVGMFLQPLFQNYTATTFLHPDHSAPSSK
- PROTOCOL TEXT: Radioligand assay: [3H] cytisin binding to the α4β2-subtype in rat brain membranes
MEASUREMENT KIND: Ki (µM)
Numbers only, in µM.

CN1CC[C@@H]2Cc3ccncc3[C@@H]21 [Example 7]
1.67
c1cnc2c(c1)C1NCCC1C2 (single isomer, unassigned; (+)) [Example 1]
2.43
c1cc2c(cn1)[C@H]1NCC[C@H]1C2 [Example 6]
0.0152
CN1CCC2Cc3ncccc3C21 (single isomer, unassigned; (-)) [Example 3]
0.199

Shift focus to the following entry.
Return Ki measured with α4β2-subtype (central nicotine receptor) (Rattus norvegicus, UniProt P09483+P12390) given this compound: CN1CC[C@H]2Cc3ccncc3[C@H]21 [Example 8]
0.027

All figures here come from patent US20100076011A1.
